Parameter IC50: see the listing below.
biological target: tubulin (Sus scrofa, UniProt P02550+P02554); construct: Tubulin is purified from pig brain according to published methods; experiment: Evaluation of the inhibition of tubulin polymerization (turbidimetry); details: tubulin 10 μm (1 mg/ml), 37° C., turbidity at 350 nm; concentration that inhibits the rate of polymerization by 50%; read-out: Inhibition of tubulin polymerization IC 50 (μm)
Sequence (P02550 whole entry): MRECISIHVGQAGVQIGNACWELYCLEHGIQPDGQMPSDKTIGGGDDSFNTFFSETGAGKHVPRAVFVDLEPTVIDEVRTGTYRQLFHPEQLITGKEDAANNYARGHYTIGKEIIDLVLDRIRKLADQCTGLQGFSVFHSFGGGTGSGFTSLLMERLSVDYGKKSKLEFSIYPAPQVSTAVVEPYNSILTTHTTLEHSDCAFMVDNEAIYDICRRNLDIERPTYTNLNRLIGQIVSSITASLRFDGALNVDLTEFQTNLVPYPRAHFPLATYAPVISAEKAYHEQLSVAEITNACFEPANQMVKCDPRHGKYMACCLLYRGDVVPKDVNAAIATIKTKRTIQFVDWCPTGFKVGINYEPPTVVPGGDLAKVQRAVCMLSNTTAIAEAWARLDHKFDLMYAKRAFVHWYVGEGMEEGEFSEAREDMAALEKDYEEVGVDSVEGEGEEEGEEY
Sequence (P02554 whole entry): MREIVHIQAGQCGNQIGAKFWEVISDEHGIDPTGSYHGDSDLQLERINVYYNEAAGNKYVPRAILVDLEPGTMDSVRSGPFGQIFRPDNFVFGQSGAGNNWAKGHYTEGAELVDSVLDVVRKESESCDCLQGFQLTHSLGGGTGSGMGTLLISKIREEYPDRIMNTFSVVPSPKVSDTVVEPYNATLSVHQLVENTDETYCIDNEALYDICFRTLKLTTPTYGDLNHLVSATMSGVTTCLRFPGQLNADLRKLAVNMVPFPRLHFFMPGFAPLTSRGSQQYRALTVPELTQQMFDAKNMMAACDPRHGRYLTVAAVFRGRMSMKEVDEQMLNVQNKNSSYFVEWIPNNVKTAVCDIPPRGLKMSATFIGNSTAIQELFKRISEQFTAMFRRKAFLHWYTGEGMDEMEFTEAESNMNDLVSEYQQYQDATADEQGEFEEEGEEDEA
quantity_name: IC50

{"columns": ["chemical_smiles", "quantity_name", "result"],
 "data": [
  ["COc1cc(OC)cc(N2CCN(C(=O)c3cc(NCc4ccccc4)nn3-c3ccccc3)CC2)c1", "IC50", "1.4 µM"],
  ["Cc1cc(C(=O)N2CCN(c3cccc4ccccc34)CC2)n(-c2ccc(F)cc2)n1", "IC50", "5.7 µM"],
  ["Cc1cc(C(=O)N2CCN(c3ccc(F)cc3)CC2)n(-c2cccc(Cl)c2)n1", "IC50", "5 µM"],
  ["Cc1cccc(N2CCN(C(=O)c3cc(C)nn3-c3ccc(Cl)cc3)CC2)c1", "IC50", "7.5 µM"],
  ["Cc1cccc(N2CCN(C(=O)c3cc(C)nn3-c3cccc(F)c3)CC2)c1", "IC50", "1.8 µM"],
  ["Cc1cc(C)cc(N2CCN(C(=O)c3cc(C)nn3-c3ccccc3)CC2)c1", "IC50", "0.6 µM"],
  ["Cc1cccc(-n2nc(C)cc2C(=O)N2CCN(c3cccc(Cl)c3)CC2)c1", "IC50", "1.3 µM"],
  ["Cc1cc(C(=O)N2CCN(c3cccc(C(F)(F)F)c3)CC2)n(-c2cccc(Cl)c2)n1", "IC50", "3.3 µM"],
  ["Cc1cc(C(=O)N2CCN(c3cccc4ccccc34)CC2)n(-c2ccccc2F)n1", "IC50", "2.5 µM"],
  ["Cc1cccc(N2CCN(C(=O)c3cc(C)nn3-c3ccccc3)CC2)n1", "IC50", "1.1 µM"],
  ["COc1cccc(-n2nc(C)cc2C(=O)N2CCN(c3ccccc3C)CC2)c1", "IC50", "4.3 µM"],
  ["Cc1ccc(C)c(N2CCN(C(=O)c3cc(C)nn3-c3ccccc3)CC2)c1", "IC50", "3.5 µM"],
  ["CSc1ccccc1N1CCN(C(=O)c2cc(C)nn2-c2cccc(Cl)c2)CC1", "IC50", "1.5 µM"],
  ["Cc1cc(C(=O)N2CCN(c3cccc(C)c3C)CC2)n(-c2ccccc2F)n1", "IC50", "7 µM"],
  ["Cc1cc(C(=O)N2CCN(c3cccc(C(F)(F)F)c3)CC2)n(-c2cccc(F)c2)n1", "IC50", "1.5 µM"],
  ["COc1cccc(-n2nc(C)cc2C(=O)N2CCN(c3cccc(C)c3)CC2)c1", "IC50", "1.8 µM"],
  ["Cc1cc(C(=O)N2CCN(c3cccc(F)c3)CC2)n(-c2ccccc2)n1", "IC50", "0.8 µM"],
  ["COc1cc(OC)cc(N2CCN(C(=O)c3cc(/C=C/c4ccc(F)cc4)nn3-c3ccccc3)CC2)c1", "IC50", "1.26 µM"],
  ["Cc1cc(C(=O)N2CCN(c3cccc4ccccc34)CC2)n(-c2cccc(F)c2)n1", "IC50", "3 µM"],
  ["Cc1cc(C(=O)N2CCN(c3cccc(Cl)c3)CC2)n(-c2ncccc2C#N)n1", "IC50", "4 µM"],
  ["Cc1cc(C(=O)N2CCN(c3ccccc3C(F)(F)F)CC2)n(-c2ccccc2)n1", "IC50", "5.5 µM"],
  ["Cc1cccc(-n2nc(C)cc2C(=O)N2CCN(c3cccc(C(F)(F)F)c3)CC2)c1", "IC50", "8 µM"],
  ["COc1cccc(N2CCN(C(=O)c3cc(C)nn3-c3ccc(F)cc3)CC2)c1", "IC50", "0.9 µM"],
  ["Cc1cc(C(=O)N2CCN(c3cccc(C(=O)OC(C)(C)C)c3)CC2)n(-c2ccccc2)n1", "IC50", "22.5 µM"],
  ["Cc1cccc(N2CCN(C(=O)c3cc(C)nn3-c3ccccc3F)CC2)c1", "IC50", "6 µM"],
  ["CCc1ccccc1N1CCN(C(=O)c2cc(C)nn2-c2cccc(C)c2)CC1", "IC50", "5 µM"],
  ["Cc1cc(C(=O)N2CCN(c3ccc(Cl)c(Cl)c3)CC2)n(-c2cccc(F)c2)n1", "IC50", "1.7 µM"],
  ["Cc1cc(C(=O)N2CCN(c3ccsc3)CC2)n(-c2ccccc2)n1", "IC50", "8 µM"],
  ["COc1cccc(N2CCN(C(=O)c3cc(C)nn3-c3ccc(Cl)cc3)CC2)c1", "IC50", "2.5 µM"],
  ["Cc1cc(C(=O)N2CCN(c3cccc(C)c3C)CC2)n(-c2ccc(F)cc2)n1", "IC50", "1.5 µM"],
  ["Cc1cc(C(=O)N2CCN(c3ccccc3C(F)(F)F)CC2)n(-c2cccc(Cl)c2)n1", "IC50", "12 µM"],
  ["Cc1cc(C(=O)N2CCN(c3ccccc3C)CC2)n(-c2ccccc2)n1", "IC50", "5 µM"],
  ["COc1cccc(N2CCN(C(=O)c3cc(C)nn3-c3cccc(C)c3)CC2)c1", "IC50", "1 µM"],
  ["Cc1cc(C(=O)N2CCN(c3cccc(Cl)c3)CC2)n(C2CCCCC2)n1", "IC50", "3.26 µM"],
  ["Cc1cc(C(=O)N2CCN(c3cccc(Cl)n3)CC2)n(-c2ccccc2)n1", "IC50", "1.3 µM"],
  ["CCOc1ccccc1N1CCN(C(=O)c2cc(C)nn2-c2ccccc2)CC1", "IC50", "9 µM"]
]}
